biological target: Gamma-secretase; test: Inhibition of gamma-secretase-mediated NotchdeltaE cleavage in human HeLa cells by luciferase assay
TEST READOUT: IC50

In the examples that follow, each entry is paired with its recorded IC50.
{"COMPOUND": "COc1ccc(N2CCN(c3nc(Nc4cc(C(C)(C)C)ccc4C)cc(OC)n3)CC2(C)C)cc1", "IC50": "> 50 µM"}
{"COMPOUND": "COc1ccc(N2CCN(c3nc(Nc4cc(C(C)(C)C)ccc4C)cc(C(=O)NCC4CCCO4)n3)CC2(C)C)cc1 (stereo not drawn)", "IC50": "> 50 µM"}
{"COMPOUND": "COc1ccc(N2CCN(c3nc(Nc4cc(C(C)(C)C)ccc4C)cc(OCCN4CCOCC4)n3)CC2(C)C)cc1", "IC50": "> 50 µM"}

Task: Need IC50, item "COc1ccc(N2CCN(c3nc(Nc4cc(C(C)(C)C)ccc4C)cc(OCCN(C)C)n3)CC2(C)C)cc1"
Result: 28.8 µM

###

biological target: Gamma-secretase (Homo sapiens) (UniProt Q96BI3+Q9NZ42+Q8WW43+P49768+Q92542+P49810); assay: Selectivity ratio, IC50 for human gamma-secretase-mediated NotchdeltaE cleavage to IC50 for gamma-secretase-mediated amyloid beta 42 production; assay type: protein-complex assay
Known Ratio IC50 of a selection of molecules

These recorded examples may help you get a feel for the data.
{"MOLECULE": "COc1ccc(N2CCN(c3nc(Nc4cc(C(C)(C)C)ccc4C)cc(OC)n3)CC2(C)C)cc1", "VALUE REPORTED": "> 190"}
{"MOLECULE": "COc1ccc(N2CCN(c3nc(Nc4cc(C(C)(C)C)ccc4C)cc(C(=O)NCC4CCCO4)n3)CC2(C)C)cc1 (centres undefined)", "VALUE REPORTED": "> 250"}
{"MOLECULE": "COc1ccc(N2CCN(c3nc(CO)cc(Nc4cc(C(C)(C)C)ccc4C)n3)CC2(C)C)cc1", "VALUE REPORTED": 180}

Okay, next one:
Task: Looking for the measured Ratio IC50 of "COc1ccc(N2CCN(c3nc(Nc4cc(C(C)(C)C)ccc4C)cc(OCCC(C)(C)O)n3)CC2(C)C)cc1" , can you help?
Result: > 230

###

The entries below are paired with their reported Ratio IC50.
target: Gamma-secretase (Homo sapiens) (UniProt Q96BI3+Q9NZ42+Q8WW43+P49768+Q92542+P49810); assay: Selectivity ratio, IC50 for human gamma-secretase-mediated NotchdeltaE cleavage to IC50 for gamma-secretase-mediated amyloid beta 42 production; type: protein-complex assay
Form field (numeric): enter value without unit.

{"SUBSTANCE SMILES": "COc1ccc(N2CCN(c3nc(N)cc(Nc4cc(C(C)(C)C)ccc4C)n3)CC2(C)C)cc1", "VALUE REPORTED": 390}

Please look at the following molecule next.
Task: Endpoint output: Ratio IC50 of "COc1ccc(N2CCN(c3nc(Nc4cc(C(C)(C)C)ccc4C)cc(OCCN(C)C)n3)CC2(C)C)cc1" . Value?
Result: 270

###

target: Gamma-secretase; assay: Inhibition of gamma-secretase-mediated NotchdeltaE cleavage in human HeLa cells by luciferase assay
TEST READOUT: IC50

{"MOLECULE": "COc1ccc(N2CCN(c3nc(Nc4cc(C(C)(C)C)ccc4C)cc(OCCC(C)(C)O)n3)CC2(C)C)cc1", "IC50": "> 50 µM"}
{"MOLECULE": "COc1ccc(N2CCN(c3nc(Nc4cc(C(C)(C)C)ccc4C)cc(OCCC4CCCN4C)n3)CC2(C)C)cc1 (centres undefined)", "IC50": "> 50 µM"}
{"MOLECULE": "COc1ccc(N2CCN(c3nc(CO)cc(Nc4cc(C(C)(C)C)ccc4C)n3)CC2(C)C)cc1", "IC50": "6.14 µM"}

Let's switch to this molecule now.
Task: Which IC50 is reported for this molecule? "COc1ccc(N2CCN(c3nc(N)cc(Nc4cc(C(C)(C)C)ccc4C)n3)CC2(C)C)cc1"
Result: 34.4 µM
